# CHEMICAL_SMILES, boiling point, °C
records = [
    ("CCC/C=C/CCC", 126),
    ("O=C1c2ccccc2C(=O)c2c1ccc(O)c2O", 430),
    ("CC(=O)CCc1ccccc1", 234),
]

###

# COMPOUND, boiling point, °C
measured = [
    ("COS(=O)OC", 126),
    ("Cc1ccc(I)cc1", 211),
    ("CC(C)C[Si](Cl)(Cl)Cl", 143),
    ("C=C(C)C=C(C)C", 93.2),
    ("Cc1cccnc1N", 222),
    ("CC1(C)CC(C)(c2ccccc2)c2ccccc21 (stereo unspecified)", 308),
    ("CCCC(=O)OCc1ccco1", 212),
    ("Oc1c(F)c(F)c(C(F)(F)F)c(F)c1F", 164),
    ("CC1(C)CCCNC1", 137),
    ("OCc1cccc(F)c1", 201),
    ("O=[N+]([O-])c1ccc(Cl)c([N+](=O)[O-])c1", 315),
    ("CC(C)(O)C(=O)O", 212),
    ("COc1cc(Cl)ccc1O", 241),
    ("Clc1cccc(Cl)c1Br", 242),
    ("CCC(=O)Oc1ccccc1", 211),
    ("CCC(=O)OC/C=C(\\C)CCC=C(C)C", 253),
    ("CCCOC(=O)OCCC", 168),
    ("FC(F)C(F)(F)Cl", -10),
    ("Cc1cccc(CC#N)c1", 248),
    ("CCCCCCC(O)CCC (stereo unspecified)", 210),
    ("CCc1ccccc1Br", 199),
    ("CCOc1ccc(C=O)cc1OCC", 279),
    ("CC1(C)CO1", 52),
    ("CCOS(C)(=O)=O", 214),
    ("FCCl", -9.1),
    ("N#CCCC[Si](Cl)(Cl)Cl", 238),
    ("CC(C)CCC(C)C(C)C (stereo unspecified)", 156),
    ("O=[N+]([O-])CCCl", 174),
    ("CC(C)CCCC(=O)O", 216),
    ("O=C1OC(=O)C(F)(F)C1(F)F", 54.5),
    ("NC(c1ccccc1)c1ccccc1", 304),
    ("Oc1c(Cl)c(Cl)c(Cl)c(Cl)c1Cl", 310),
    ("CCCCNc1ccccc1", 244),
    ("CCCC/C=C/CCCCC", 192),
    ("c1ccc(Oc2ccccc2)cc1", 258),
    ("CC1(C)CCCC1", 87.5),
    ("Brc1cccc(I)c1", 252),
    ("O=C(O)/C(F)=C/c1ccccc1", 290),
    ("OCCCCC(F)(F)F", 148),
    ("CCCCC(CC)(CO)CO", 262),
    ("c1cc[nH]c1", 130),
    ("COC(=O)/C=C\\C(=O)OC", 198),
    ("CCCCCCC(=O)Cl", 145),
    ("Cc1c(O)cccc1Cl", 225),
    ("C=CCCCCCCCCCCC", 233),
    ("CCCCl", 46.5),
    ("O=C(O)CCc1ccco1", 229),
    ("CC1(O)CCCCC1", 155),
    ("CC(CO)Oc1ccccc1 (stereo unspecified)", 244),
    ("Clc1ccc2ccccc2c1Cl", 296),
    ("COC(=O)C(C)O (stereo unspecified)", 145),
    ("Clc1ccc(C(Cl)Cl)c(Cl)c1Cl", 278),
    ("C=Cc1cccnc1", 162),
    ("CCCCCCCCCOC(C)=O", 210),
    ("c1ccc(-c2ccc(-c3ccccc3)o2)cc1", 344),
    ("O=CCCc1ccccc1", 224),
    ("Brc1ccc2cccnc2c1", 290),
    ("c1ccc(C2CCNCC2)cc1", 257),
    ("Oc1ccccc1", 182),
    ("OCC(Cl)(Cl)Cl", 152),
    ("CCC(=O)C(=O)CC", 130),
    ("CCOC(C)(C)CC", 102),
    ("CC(C)OC(=O)C(Cl)Cl", 164),
    ("Nc1ccccc1Oc1ccccc1", 308),
    ("CCCCCC[N+](=O)[O-]", 193),
    ("CCNc1cccc2ccccc12", 305),
]
